System: HL-60(TB) leukemia
Assay method text: NCI-60 one-dose screen, 48 h (100 = growth as untreated, 0 = no growth, -100 = all killed)
Condition context: 10 µM unless noted
Compounds without any hit were thinned out: in the full panel of roughly 83,000, 20% have a hit.

[
  {
    "Molecule": "CC1=C(O)C(=O)C(C(C#N)(C#N)C(C#N)C#N)C1 (stereo not given)",
    "Target system": "HL-60(TB) leukemia",
    "Unit descriptor": "%",
    "growth": 91.7
  },
  {
    "Molecule": "COc1cc2cc(Oc3ccc(NC(=O)c4cc(C(F)(F)F)cc(C(F)(F)F)c4)cc3)c(C)nc2cc1OC",
    "Target system": "HL-60(TB) leukemia",
    "Unit descriptor": "%",
    "growth": 50.4
  },
  {
    "Molecule": "C/C(=N/N=C(N)N)c1ccc(Cl)cc1",
    "Target system": "HL-60(TB) leukemia",
    "Unit descriptor": "%",
    "growth": 171
  },
  {
    "Molecule": "CCCCCCCCNC(=O)[C@@H](N)CSCOC(C)=O",
    "Target system": "HL-60(TB) leukemia",
    "Unit descriptor": "%",
    "growth": 83.6
  },
  {
    "Molecule": "COc1ccccc1CNCCCN1C(=O)c2ccc3c4c(ccc(c24)C1=O)C(=O)N(CCCNCCCN)C3=O",
    "Target system": "HL-60(TB) leukemia",
    "Unit descriptor": "%",
    "growth": -42.3
  },
  {
    "Molecule": "Cn1c(I)c(C#CCO[Si](C)(C)C(C)(C)C)c(=O)[nH]c1=O",
    "Target system": "HL-60(TB) leukemia",
    "Unit descriptor": "%",
    "growth": -41.2
  },
  {
    "Molecule": "C/C(=N\\NC(=O)Cn1c(-c2ccc(S(C)(=O)=O)cc2)nc2cc(Cl)ccc21)c1ccc(Cl)cc1",
    "Target system": "HL-60(TB) leukemia",
    "Unit descriptor": "%",
    "growth": 88.2
  },
  {
    "Molecule": "O=C(Nc1ccccc1Cl)c1c[nH]c(=O)c(-c2ccc(N3CCCOC4(CC4)C3)cc2)c1",
    "Target system": "HL-60(TB) leukemia",
    "Unit descriptor": "%",
    "growth": 28.3
  },
  {
    "Molecule": "N#Cc1c(-c2ccc(Cl)cc2)nc(N=Nc2c(O)[nH]c3ccc(Cl)cc23)nc1N1CCOCC1",
    "Target system": "HL-60(TB) leukemia",
    "Unit descriptor": "%",
    "growth": 104
  },
  {
    "Molecule": "NC(=S)N/N=C/c1cn(-c2ccccc2)nc1-c1cc2ccccc2oc1=O",
    "Target system": "HL-60(TB) leukemia",
    "Unit descriptor": "%",
    "growth": 20.4
  },
  {
    "Molecule": "N=c1sc(Cc2ccc(Cl)cc2)cn1CC(=O)c1ccc(F)cc1",
    "Target system": "HL-60(TB) leukemia",
    "Unit descriptor": "%",
    "growth": 94.8
  },
  {
    "Molecule": "N#Cc1c(-c2ccccc2)cc(-c2ccccc2)n(CCCC(=O)NO)c1=O",
    "Target system": "HL-60(TB) leukemia",
    "Unit descriptor": "%",
    "growth": 10.2
  },
  {
    "Molecule": "NC(=O)CSc1nc(-c2ccc(F)cc2)cc(-c2ccco2)n1",
    "Target system": "HL-60(TB) leukemia",
    "Unit descriptor": "%",
    "growth": 108
  },
  {
    "Molecule": "CCOC(=O)/C(=C/c1c(-c2ccccc2)[nH]c2ccccc12)C(=O)c1ccc(Cl)cc1",
    "Target system": "HL-60(TB) leukemia",
    "Unit descriptor": "%",
    "growth": -10.6
  },
  {
    "Molecule": "Oc1ccc(O)cc1",
    "Target system": "HL-60(TB) leukemia",
    "Unit descriptor": "%",
    "growth": 48.4
  },
  {
    "Molecule": "CC(C)C(=O)Nc1nc2c(s1)CCCc1ccn(S(=O)(=O)c3ccccc3)c1-2",
    "Target system": "HL-60(TB) leukemia",
    "Unit descriptor": "%",
    "growth": 83.8
  },
  {
    "Molecule": "Cc1ccc(C(=O)/C(=C/c2ccc([N+](=O)[O-])cc2)SCc2ccc(Cl)cc2)cc1",
    "Target system": "HL-60(TB) leukemia",
    "Unit descriptor": "%",
    "growth": 58
  },
  {
    "Molecule": "CC1(O)CCCCCC1",
    "Target system": "HL-60(TB) leukemia",
    "Unit descriptor": "%",
    "growth": 92.7
  },
  {
    "Molecule": "O=C1C(=O)/C(=C/c2ccccc2)CCCCCC/C1=C/c1ccccc1",
    "Target system": "HL-60(TB) leukemia",
    "Unit descriptor": "%",
    "growth": 46.6
  },
  {
    "Molecule": "C=CCN(/C=C1/C(=O)O[C@H](COC)[C@@]2(C)C1=C(O)C(=O)C1=C2[C@H](OC(C)=O)C[C@]2(C)C(=O)CC[C@@H]12)CC=C",
    "Target system": "HL-60(TB) leukemia",
    "Unit descriptor": "%",
    "growth": 5.66
  },
  {
    "Molecule": "N#C/C(=C\\c1ccc(Br)cc1)n1nnc2c(F)cccc21",
    "Target system": "HL-60(TB) leukemia",
    "Unit descriptor": "%",
    "growth": 0.171
  },
  {
    "Molecule": "COc1ccc(C(=O)COc2ccc(/C=C3\\Oc4ccc(Cl)cc4C3=O)cc2)cc1",
    "Target system": "HL-60(TB) leukemia",
    "Unit descriptor": "%",
    "growth": 16.5
  },
  {
    "Molecule": "COc1cc(/C=C2\\CN(C)C/C(=C\\c3cc(CN4CCCCC4)c(O)c(OC)c3)C2=O)cc(CN2CCCCC2)c1O",
    "Target system": "HL-60(TB) leukemia",
    "Unit descriptor": "%",
    "growth": 11
  },
  {
    "Molecule": "COc1ccc(/C(C)=N/NC(=O)CSc2nc3ccccc3c(=O)n2Cc2ccc(S(N)(=O)=O)cc2)c(OC)c1",
    "Target system": "HL-60(TB) leukemia",
    "Unit descriptor": "%",
    "growth": 102
  },
  {
    "Molecule": "N#Cc1nc2c(S(=O)(=O)c3ccccc3)c(N)n(Cc3cccnc3)c2nc1C#N",
    "Target system": "HL-60(TB) leukemia",
    "Unit descriptor": "%",
    "growth": 53
  },
  {
    "Molecule": "O=C(/C(=C/c1ccc([N+](=O)[O-])cc1)SCc1ccc(F)cc1)c1ccc(F)cc1",
    "Target system": "HL-60(TB) leukemia",
    "Unit descriptor": "%",
    "growth": 68.8
  },
  {
    "Molecule": "Clc1ccc(Nc2ccnc(NCCNc3ccnc4cc(Cl)ccc34)n2)cc1",
    "Target system": "HL-60(TB) leukemia",
    "Unit descriptor": "%",
    "growth": -71
  },
  {
    "Molecule": "CCCC(CC)(C(=O)Nc1ccc2nc(C)cc(N)c2c1)C(=O)Nc1ccc2nc(C)cc(N)c2c1",
    "Target system": "HL-60(TB) leukemia",
    "Unit descriptor": "%",
    "growth": 100
  },
  {
    "Molecule": "C=C1C(=O)C2CCN1CC2",
    "Target system": "HL-60(TB) leukemia",
    "Unit descriptor": "%",
    "growth": 97.4
  },
  {
    "Molecule": "COc1cc2nccc(Oc3ccc(NC(=O)C4(C(=O)Nc5ccc(F)cc5)CC4)cc3)c2cc1O",
    "Target system": "HL-60(TB) leukemia",
    "Unit descriptor": "%",
    "growth": 54.5
  },
  {
    "Molecule": "C=C1CC[C@@H]2C(C)(C)[C@@H](O)CC[C@@]2(C)[C@@H]1COc1ccc2ccc(=O)oc2c1",
    "Target system": "HL-60(TB) leukemia",
    "Unit descriptor": "%",
    "growth": 69.1
  },
  {
    "Molecule": "CCN(CC)CCN1c2nc3ccccc3cc2Sc2cc3ccccc3nc21",
    "Target system": "HL-60(TB) leukemia",
    "Unit descriptor": "%",
    "growth": -21.1
  },
  {
    "Molecule": "COc1ccccc1NC(=O)c1ccc(/C=C/C(=O)c2nccn2C)cc1",
    "Target system": "HL-60(TB) leukemia",
    "Unit descriptor": "%",
    "growth": -9.45
  },
  {
    "Molecule": "COc1cc2c(c(OC)c1OC)CCC(c1cccc(C(=O)Nc3ccccc3Br)c1)O2 (stereo not given)",
    "Target system": "HL-60(TB) leukemia",
    "Unit descriptor": "%",
    "growth": 79.3
  },
  {
    "Molecule": "CCN1CCN(c2ccc(Nc3ncc4ccc5ncn(C(C)C)c5c4n3)nc2)CC1",
    "Target system": "HL-60(TB) leukemia",
    "Unit descriptor": "%",
    "growth": -36.3
  },
  {
    "Molecule": "CN1CCN(c2cc(Nc3cc(C4CC4)[nH]n3)nc(Nc3ccc(CC(=O)NCc4cccc(F)c4)cc3)n2)CC1",
    "Target system": "HL-60(TB) leukemia",
    "Unit descriptor": "%",
    "growth": 19.9
  },
  {
    "Molecule": "CC/C=C\\C/C=C\\C[C@H]1C/C=C2/C(=O)C=C[C@H]2C/C=C\\CCC(=O)O1",
    "Target system": "HL-60(TB) leukemia",
    "Unit descriptor": "%",
    "growth": -5.31
  },
  {
    "Molecule": "C=C1CC2(OC1=O)C(=O)Nc1ccccc12 (stereo not given)",
    "Target system": "HL-60(TB) leukemia",
    "Unit descriptor": "%",
    "growth": 31.6
  },
  {
    "Molecule": "COc1ccccc1NC(=O)COc1ccc(/C=C2/Oc3cc4occc4c(OC)c3C2=O)cc1OC",
    "Target system": "HL-60(TB) leukemia",
    "Unit descriptor": "%",
    "growth": 87.5
  },
  {
    "Molecule": "Fc1ccc(-c2ccnc3nc(-c4ccncc4)nn23)cc1",
    "Target system": "HL-60(TB) leukemia",
    "Unit descriptor": "%",
    "growth": 96.5
  }
]
